Conditions: Study 1, healthy subjects; oral repaglinide 1 mg, metformin 500 mg, pitavastatin 2 mg, caffeine 100 mg, efavirenz 50 mg, midazolam 2 mg or digoxin 0.25 mg without rezafungin; plasma, LC-MS/MS, NCA
Parameter AUC0–∞, geometric LSM value, alone: see the listing below.
Please respond with the number in ng·h/mL and leave the unit unwritten.

Consider the reported AUC0–∞, geometric LSM value, alone for these compounds:
Cc1ncc2n1-c1ccc(Cl)cc1C(c1ccccc1F)=NC2 [Midazolam] ... 23.25
CCOc1cc(CC(=O)N[C@@H](CC(C)C)c2ccccc2N2CCCCC2)ccc1C(=O)O [Repaglinide] ... 21.74

Next compound, please.
Asked: Look up and report measured AUC0–∞, geometric LSM value, alone for this entry: O=C(O)C[C@H](O)C[C@H](O)/C=C/c1c(C2CC2)nc2ccccc2c1-c1ccc(F)cc1 [Pitavastatin]
Given back: 85.78

* * *

Conditions: Study 1, healthy subjects; oral repaglinide 1 mg, metformin 500 mg, pitavastatin 2 mg, caffeine 100 mg, efavirenz 50 mg, midazolam 2 mg or digoxin 0.25 mg without rezafungin; plasma, LC-MS/MS, NCA
assay endpoint: Cmax, geometric LSM value, alone

CN(C)C(=N)N=C(N)N [Metformin] ... 1,074.27 ng/mL
O=C(O)C[C@H](O)C[C@H](O)/C=C/c1c(C2CC2)nc2ccccc2c1-c1ccc(F)cc1 [Pitavastatin] ... 36.23 ng/mL
Cn1c(=O)c2c(ncn2C)n(C)c1=O [Caffeine] ... 2,075.44 ng/mL

Asked: Look up and report measured Cmax, geometric LSM value, alone for this entry: CCOc1cc(CC(=O)N[C@@H](CC(C)C)c2ccccc2N2CCCCC2)ccc1C(=O)O [Repaglinide]
Given back: 11.86 ng/mL

Asked: Look up and report measured Cmax, geometric LSM value, alone for this entry: O=C1Nc2ccc(Cl)cc2[C@@](C#CC2CC2)(C(F)(F)F)O1 [Efavirenz]
Given back: 299.30 ng/mL

Asked: Look up and report measured Cmax, geometric LSM value, alone for this entry: Cc1ncc2n1-c1ccc(Cl)cc1C(c1ccccc1F)=NC2 [Midazolam]
Given back: 9.00 ng/mL

* * *

Conditions: Study 1; rezafungin 400 mg i.v. (day 10 or 15); geometric LSM ratio x 100, ANOVA
Parameter Cmax, geometric mean ratio (drug + rezafungin / drug alone): see the listing below.
Please respond with the number in % and leave the unit unwritten.

Consider the reported Cmax, geometric mean ratio (drug + rezafungin / drug alone) for these molecules:
CC(C)c1nc(N(C)S(C)(=O)=O)nc(-c2ccc(F)cc2)c1/C=C/[C@@H](O)C[C@@H](O)CC(=O)O ... 111.82
Cn1c(=O)c2c(ncn2C)n(C)c1=O ... 107.59
O=C1Nc2ccc(Cl)cc2[C@@](C#CC2CC2)(C(F)(F)F)O1 ... 100.29
CN(C)C(=N)N=C(N)N ... 103.88
O=C(O)C[C@H](O)C[C@H](O)/C=C/c1c(C2CC2)nc2ccccc2c1-c1ccc(F)cc1 ... 98.59

Asked: Look up and report measured Cmax, geometric mean ratio (drug + rezafungin / drug alone) for this entry: "Cc1ncc2n1-c1ccc(Cl)cc1C(c1ccccc1F)=NC2"
Given back: 96.73

* * *

Parameter AUC0–∞, geometric mean ratio (drug + rezafungin / drug alone): see the listing below.
Details: Study 1; rezafungin 400 mg i.v. (day 10 or 15); geometric LSM ratio x 100, ANOVA
Please respond with the number in % and leave the unit unwritten.

O=C1Nc2ccc(Cl)cc2[C@@](C#CC2CC2)(C(F)(F)F)O1 [Efavirenz] ... 112.44

Asked: Look up and report measured AUC0–∞, geometric mean ratio (drug + rezafungin / drug alone) for this entry: CN(C)C(=N)N=C(N)N [Metformin]
Given back: 99.02

* * *

Molecular target: CYP3A4 (Homo sapiens)
Sequence (P08684 whole entry): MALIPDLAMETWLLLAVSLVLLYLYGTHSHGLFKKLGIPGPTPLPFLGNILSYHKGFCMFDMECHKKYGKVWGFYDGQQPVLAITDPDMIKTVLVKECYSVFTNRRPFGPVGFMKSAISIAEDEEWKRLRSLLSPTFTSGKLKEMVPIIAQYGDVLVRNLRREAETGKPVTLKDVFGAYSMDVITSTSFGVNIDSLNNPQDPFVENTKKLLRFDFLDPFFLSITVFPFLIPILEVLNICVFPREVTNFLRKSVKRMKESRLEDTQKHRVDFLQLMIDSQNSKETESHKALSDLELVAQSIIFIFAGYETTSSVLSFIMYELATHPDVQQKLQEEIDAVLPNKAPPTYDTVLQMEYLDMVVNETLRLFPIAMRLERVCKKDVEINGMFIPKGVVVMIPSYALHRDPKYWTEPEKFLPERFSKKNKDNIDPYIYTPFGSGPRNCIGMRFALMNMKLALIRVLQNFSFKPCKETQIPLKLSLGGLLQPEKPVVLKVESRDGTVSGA
Test: NC-012 CYP450 inhibition screening, recombinant CYP3A4
Type: in vitro ADME
Settings: benzyloxyresorufin substrate, recombinant human CYP
Numbered stars: 1 amine (or outer) side, 2 acyl side, 3 side chain; on linkers, the order of the positions; unused ones are H or OH. Bridge positions count the residues as written; N and C are the ends. Square brackets hold non-standard residues; d marks the D form. Peptide text beside a SMILES is read from it. * marks the point of attachment. Orn(4R-OH,5R-OCH2CH2NMe3+) = C[N+](C)(C)CCO[C@@H](N[*:3])[C@H](O)C[C@H](N[*:1])C(=O)[*:2]; pTerphenylCO(4''-OnC5H11) = CCCCCOc1ccc(-c2ccc(-c3ccc(C(=O)*)cc3)cc2)cc1; hTyr(3S-OH,4S-OH) = N[C@H](C(=O)O)[C@H](O)[C@@H](O)c1ccc(O)cc1; Pro(3S-OH,4S-Me) = C[C@H]1CN[C@H](C(=O)O)[C@H]1O; Hyp = O=C(O)[C@@H]1C[C@@H](O)CN1
assay endpoint: inhibition at 10 µM (%)
Please respond with the number in % and leave the unit unwritten.

Asked: Look up and report measured inhibition at 10 µM for this entry: CCCCCOc1ccc(-c2ccc(-c3ccc(C(=O)N[C@H]4C[C@@H](O)[C@@H](OCC[N+](C)(C)C)NC(=O)[C@@H]5[C@@H](O)[C@@H](C)CN5C(=O)[C@H]([C@@H](C)O)NC(=O)[C@H]([C@H](O)[C@@H](O)c5ccc(O)cc5)NC(=O)[C@@H]5C[C@@H](O)CN5C(=O)[C@H]([C@@H](C)O)NC4=O)cc3)cc2)cc1 [Rezafungin] ({pTerphenylCO(4''-OnC5H11)}-[Orn(4R-OH,5R-OCH2CH2NMe3+)]T[Hyp][hTyr(3S-OH,4S-OH)]T[Pro(3S-OH,4S-Me)]; lactam 1-C)
Given back: 81

* * *

Target: human OATP1B3 (Homo sapiens, UniProt Q9NPD5)
Sequence (Q9NPD5 whole entry): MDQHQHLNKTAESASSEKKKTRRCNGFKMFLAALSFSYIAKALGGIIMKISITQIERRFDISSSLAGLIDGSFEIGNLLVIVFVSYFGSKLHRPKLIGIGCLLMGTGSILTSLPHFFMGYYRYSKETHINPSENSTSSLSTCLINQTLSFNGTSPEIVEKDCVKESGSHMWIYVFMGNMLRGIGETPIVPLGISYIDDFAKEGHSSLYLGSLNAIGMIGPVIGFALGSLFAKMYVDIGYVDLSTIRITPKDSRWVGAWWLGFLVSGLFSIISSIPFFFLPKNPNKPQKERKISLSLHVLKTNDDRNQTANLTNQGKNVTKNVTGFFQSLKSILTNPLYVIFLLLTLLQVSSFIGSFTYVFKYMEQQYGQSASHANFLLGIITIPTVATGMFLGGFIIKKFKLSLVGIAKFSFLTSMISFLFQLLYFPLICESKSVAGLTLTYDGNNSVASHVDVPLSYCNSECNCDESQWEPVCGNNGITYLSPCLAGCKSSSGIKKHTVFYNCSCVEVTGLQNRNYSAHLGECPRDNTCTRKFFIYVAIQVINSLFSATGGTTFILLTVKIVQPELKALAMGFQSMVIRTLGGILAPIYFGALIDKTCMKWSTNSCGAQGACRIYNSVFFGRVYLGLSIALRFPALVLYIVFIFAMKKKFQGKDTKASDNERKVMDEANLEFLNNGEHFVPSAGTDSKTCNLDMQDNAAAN
Assay: NC-152 transporter inhibition, OATP1B3
Format: in vitro ADME
Conditions: initial in vitro studies; read-out: IC50, OATP-1B3 uptake transporter (moderate inhibition)
Numbered stars: 1 amine (or outer) side, 2 acyl side, 3 side chain; on linkers, the order of the positions; unused ones are H or OH. Bridge positions count the residues as written; N and C are the ends. Square brackets hold non-standard residues; d marks the D form. Peptide text beside a SMILES is read from it. * marks the point of attachment. Orn(4R-OH,5R-OCH2CH2NMe3+) = C[N+](C)(C)CCO[C@@H](N[*:3])[C@H](O)C[C@H](N[*:1])C(=O)[*:2]; pTerphenylCO(4''-OnC5H11) = CCCCCOc1ccc(-c2ccc(-c3ccc(C(=O)*)cc3)cc2)cc1; hTyr(3S-OH,4S-OH) = N[C@H](C(=O)O)[C@H](O)[C@@H](O)c1ccc(O)cc1; Pro(3S-OH,4S-Me) = C[C@H]1CN[C@H](C(=O)O)[C@H]1O; Hyp = O=C(O)[C@@H]1C[C@@H](O)CN1
assay endpoint: IC50

Asked: Look up and report measured IC50 for this entry: CCCCCOc1ccc(-c2ccc(-c3ccc(C(=O)N[C@H]4C[C@@H](O)[C@@H](OCC[N+](C)(C)C)NC(=O)[C@@H]5[C@@H](O)[C@@H](C)CN5C(=O)[C@H]([C@@H](C)O)NC(=O)[C@H]([C@H](O)[C@@H](O)c5ccc(O)cc5)NC(=O)[C@@H]5C[C@@H](O)CN5C(=O)[C@H]([C@@H](C)O)NC4=O)cc3)cc2)cc1 [Rezafungin] ({pTerphenylCO(4''-OnC5H11)}-[Orn(4R-OH,5R-OCH2CH2NMe3+)]T[Hyp][hTyr(3S-OH,4S-OH)]T[Pro(3S-OH,4S-Me)]; lactam 1-C)
Given back: > 6 µM

* * *

Conditions: Study 1, healthy subjects; oral metformin 500 mg, pitavastatin 2 mg (day 10) or caffeine 100 mg, efavirenz 50 mg, midazolam 2 mg, digoxin 0.25 mg (day 15) with i.v. rezafungin 400 mg; plasma, LC-MS/MS, NCA
assay endpoint: Cmax, geometric LSM value, + rezafungin (ng/mL)
Please respond with the number in ng/mL and leave the unit unwritten.

Consider the reported Cmax, geometric LSM value, + rezafungin for these compounds:
O=C1Nc2ccc(Cl)cc2[C@@](C#CC2CC2)(C(F)(F)F)O1 ... 300.17
O=C(O)C[C@H](O)C[C@H](O)/C=C/c1c(C2CC2)nc2ccccc2c1-c1ccc(F)cc1 ... 35.72

Next compound, please.
Asked: Look up and report measured Cmax, geometric LSM value, + rezafungin for this entry: "Cc1ncc2n1-c1ccc(Cl)cc1C(c1ccccc1F)=NC2"
Given back: 8.70

* * *

Target: CYP2C8 (Homo sapiens)
Sequence (P10632 whole entry): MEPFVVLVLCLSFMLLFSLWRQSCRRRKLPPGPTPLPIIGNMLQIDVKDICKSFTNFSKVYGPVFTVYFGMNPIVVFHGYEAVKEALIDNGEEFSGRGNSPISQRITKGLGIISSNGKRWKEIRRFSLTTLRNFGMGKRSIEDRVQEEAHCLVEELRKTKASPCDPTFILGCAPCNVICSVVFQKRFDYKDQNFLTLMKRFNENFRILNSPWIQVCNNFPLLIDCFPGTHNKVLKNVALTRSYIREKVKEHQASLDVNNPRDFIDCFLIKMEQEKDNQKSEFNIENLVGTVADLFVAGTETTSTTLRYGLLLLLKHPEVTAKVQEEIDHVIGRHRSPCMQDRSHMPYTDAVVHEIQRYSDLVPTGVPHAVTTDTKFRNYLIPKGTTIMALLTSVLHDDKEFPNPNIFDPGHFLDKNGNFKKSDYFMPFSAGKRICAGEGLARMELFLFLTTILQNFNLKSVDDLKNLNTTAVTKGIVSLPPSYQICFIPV
Assay: NC-013 CYP2C8 inhibition in human liver microsomes
Format: in vitro ADME
Parameters: in human liver microsomal preparations; from tissue; host or cells: human liver microsomes
Details: read-out: IC50, CYP2C8 (weak inhibition)
pIC50: −log10 of the molar value. Numbered stars: 1 amine (or outer) side, 2 acyl side, 3 side chain; on linkers, the order of the positions; unused ones are H or OH. Bridge positions count the residues as written; N and C are the ends. Square brackets hold non-standard residues; d marks the D form. Peptide text beside a SMILES is read from it. * marks the point of attachment. Orn(4R-OH,5R-OCH2CH2NMe3+) = C[N+](C)(C)CCO[C@@H](N[*:3])[C@H](O)C[C@H](N[*:1])C(=O)[*:2]; pTerphenylCO(4''-OnC5H11) = CCCCCOc1ccc(-c2ccc(-c3ccc(C(=O)*)cc3)cc2)cc1; hTyr(3S-OH,4S-OH) = N[C@H](C(=O)O)[C@H](O)[C@@H](O)c1ccc(O)cc1; Pro(3S-OH,4S-Me) = C[C@H]1CN[C@H](C(=O)O)[C@H]1O; Hyp = O=C(O)[C@@H]1C[C@@H](O)CN1
assay endpoint: pIC50

Asked: Look up and report measured pIC50 for this entry: CCCCCOc1ccc(-c2ccc(-c3ccc(C(=O)N[C@H]4C[C@@H](O)[C@@H](OCC[N+](C)(C)C)NC(=O)[C@@H]5[C@@H](O)[C@@H](C)CN5C(=O)[C@H]([C@@H](C)O)NC(=O)[C@H]([C@H](O)[C@@H](O)c5ccc(O)cc5)NC(=O)[C@@H]5C[C@@H](O)CN5C(=O)[C@H]([C@@H](C)O)NC4=O)cc3)cc2)cc1 [Rezafungin] ({pTerphenylCO(4''-OnC5H11)}-[Orn(4R-OH,5R-OCH2CH2NMe3+)]T[Hyp][hTyr(3S-OH,4S-OH)]T[Pro(3S-OH,4S-Me)]; lactam 1-C)
Given back: < 4.60
